Reference source: patent US7294643B2

- System: MDA-231
- protocol: alamarBlue cytotoxicity assay, MDA-231
- Assay type: cell-based
- particulars: Homo sapiens, MDA-MB-231; MDA-231, alamarBlue
measured.endpoint: IC50 (nM)
One number for each entry, in nM.

Value of IC50 reported for the molecule COC(=O)c1cccc2oc(-c3cccc4oc(-c5ccccc5O)nc34)nc12 is 500

* * *

Hi there, I'd appreciate the recorded IC50 at 72 h for every entry that follows.
- protocol: alamarBlue cytotoxicity, range over four cell lines
- Format: cell-based
- particulars: human

INSERT INTO results (compound, test_value) VALUES
  ('O=C(O)c1cccc2[nH]c(-c3ccccc3OCc3ccccc3)nc12 [Compound 2.9]', '> 100 µM'),
  ('COC(=O)c1cccc2nc(-c3ccccc3O)oc12 [Compound 2.16]', '> 100 µM');

Give measured IC50 at 72 h for every item shown.
1. COC(=O)c1cccc2oc(-c3cccc4oc(-c5ccccc5O)nc34)nc12 [UK-1]
2. O=C(O)c1cccc2oc(-c3ccccc3OCc3ccccc3)nc12 [Compound 2.6]
3. COC(=O)c1cccc2oc(-c3ccccc3OCc3ccccc3)nc12 [Compound 2.5]

Marked response:
1. 0.32 to 65 µM
2. > 100 µM
3. > 100 µM
